System: HS 578T breast
experimentalProtocol: NCI-60 one-dose screen, 48 h
experimentalParameters: 10 µM
This is part of a sample that, as a whole, favours compounds with a hit. Of some 83,000 tested, about 20% had one in any assay. Activity calls are given as the source filed them. The calls were made as follows: active = growth percent below 10; inactive = the rest.
The reply should name one outcome from t = active, f = inactive

For orientation, consider the following solved cases.
Could you kindly confirm the outcome this assay logged for CCCCC/C=C/C/C=C/CCCCCCCC1=NC(C)(C)CN1C(C)C ?
f

Could you kindly confirm the outcome this assay logged for COc1ccc(-c2csc(NC(=O)c3ccc(Cc4n[nH]c(=O)c5cccnc45)cc3)n2)cc1 ?
f

Could you kindly confirm the outcome this assay logged for CCNc1nc(C(F)(F)F)nc2c1sc(=S)n2-c1ccccc1 ?
f

Could you kindly confirm the outcome this assay logged for COc1cc(C(=O)/C=C/c2c[nH]c3ccccc23)cc(OC)c1OC ?
f

Could you kindly confirm the outcome this assay logged for O=C(COc1cccc(/C=C2\CSc3ccccc3C2=O)c1)c1ccc(Cl)cc1 ?
t

Could you kindly confirm the outcome this assay logged for Oc1ccc(-c2[nH]c3ccccc3c2-c2nc3ccccc3o2)cc1 ?
f

Could you kindly confirm the outcome this assay logged for COc1cc(-c2csc(NC(=O)Nc3cc(C(F)(F)F)cc(C(F)(F)F)c3)n2)cc(OC)c1OC ?
f

Could you kindly confirm the outcome this assay logged for CS(=O)(=O)c1nccc(-c2c(-c3cccc(OCCc4ccccc4)c3)nc3sccn23)n1 ?
f

Could you kindly confirm the outcome this assay logged for NS(=O)(=O)c1ccc(N2N=C(c3ccccc3)CCC2=O)cc1 ?
f

Could you kindly confirm the outcome this assay logged for COc1cc2c(cc1NC(=O)C(Cl)Cl)-c1ccc(NC(=O)C(Cl)Cl)cc1C2 ?
f

Others:
Could you kindly confirm the outcome this assay logged for COc1ccc(-c2nn(-c3cccc(Cl)c3)cc2C=C(C#N)C#N)cc1 ?
f

Could you kindly confirm the outcome this assay logged for O=C(/C=C/c1cccc(B(O)O)c1)c1cccc(B(O)O)c1 ?
f

Could you kindly confirm the outcome this assay logged for COc1cc(-c2nc3ccccc3o2)cc(CN2CCCCC2)c1O ?
f

Could you kindly confirm the outcome this assay logged for C[C@@H](C[C@H](CCO)c1ccccc1)c1ccc2ccccc2c1 ?
t

###

System: EKVX NSCLC
experimentalProtocol: NCI-60 one-dose screen, 48 h (100 = growth as untreated, 0 = no growth, -100 = all killed)
experimentalParameters: 10 µM
Procedure: Growth inhibition of the EKVX human Non-Small Cell Lung tumor cell line is measured as a screen for anti-cancer activity. Cells are grown in 96 well plates and exposed to the test compound for 48 hours. Compounds are tested at a single concentration, which is 10^-5 M for most compounds. The reported endpoint is percent growth (GI% or GIPRCNT), where numbers from 0 - 100% represent growth inhibition, and numbers from -100% - 0 represent cell death. […]
About 83,000 compounds went through this panel and 20% of them were active in at least one assay; those are over-represented in the sample as a whole.
measuredQuantity: growth (%)
Provide only the numeric value, understood in %.

Below: 2 compounds and their reported growth.
In one line, give reported growth of the entry C=C(C)[C@@H]1CC[C@]2(COCCC#N)CC[C@]3(C)[C@H](CC[C@@H]4[C@@]5(C)Cc6c([nH]c7ccccc67)C(C)(C)[C@@H]5CC[C@]43C)[C@@H]12 .
116

In one line, give reported growth of the entry O=C(COc1cccc(/C=C2\CSc3ccccc3C2=O)c1)c1ccc(Cl)cc1 .
68.1

Continue with the next compound.
In one line, give reported growth of the entry CCc1ccc(-c2ccc(-n3nc(C)c4c(N)nc(Cc5ccccc5)nc43)cc2)cc1 .
83.8

###

Tested on: MOLT-4 leukemia
experimentalProtocol: NCI-60 one-dose screen, 48 h
experimentalParameters: 10 µM
The panel holds about 83,000 compounds, 20% with a hit somewhere; the sample as a whole holds those more often. Activity calls are given as the source filed them. How the source made its calls: active means growth percent below 10; inactive means the rest.
The reply should name one outcome from 1 (yes) (active), 0 (no) (inactive)

Could you kindly confirm the outcome this assay logged for C1CN(CC2CCC(CN3CCOCC3)O2)CCO1 (stereo not drawn) ?
0 (no)

Could you kindly confirm the outcome this assay logged for Nc1nccc(OCCO)n1 ?
0 (no)

Could you kindly confirm the outcome this assay logged for CCOC(=O)c1sc2ncnc(Nc3ccc4c(cnn4C(=O)Nc4ccc(C)c(Cl)c4)c3)c2c1C ?
0 (no)

Could you kindly confirm the outcome this assay logged for O=C(CC(CC(=O)c1ccccc1)c1ccccc1O)c1ccccc1 ?
0 (no)

Could you kindly confirm the outcome this assay logged for CCOC(=O)c1cocc1C(=O)O ?
0 (no)

Could you kindly confirm the outcome this assay logged for CC(=O)Nc1ccc(S(=O)(=O)c2ccnc3cc(Cl)ccc23)cc1 ?
0 (no)

Could you kindly confirm the outcome this assay logged for CCOC(=O)c1sc2ncnc(Nc3ccc4c(cnn4C(=O)Nc4ccccc4)c3)c2c1C ?
0 (no)

Could you kindly confirm the outcome this assay logged for O=C1CC(SC(=S)C2CCCC2=O)C(=O)N1 (stereo not drawn) ?
0 (no)

Others:
Could you kindly confirm the outcome this assay logged for Cn1cnc([N+](=O)[O-])c1/C=C1\Oc2ccc(Br)cc2C1=O ?
0 (no)

Could you kindly confirm the outcome this assay logged for CCOC(=O)N/N=C/c1ccc(OC)c(OC)c1 ?
0 (no)

Could you kindly confirm the outcome this assay logged for C[C@@H](O)[C@H]1C(=O)N2C(C(=O)O)=C(SCCN=CN)C[C@H]12 ?
1 (yes)

Could you kindly confirm the outcome this assay logged for CCN(CC)CC(=O)N(CC)c1ccc(C)c(Cl)c1 ?
0 (no)

Could you kindly confirm the outcome this assay logged for CCOC(=O)C1=CSC2=NC3=C(CCC/C3=C\c3cc(OC)c(OC)c(OC)c3)C(c3cc(OC)c(OC)c(OC)c3)N12 (stereo not drawn) ?
0 (no)

Could you kindly confirm the outcome this assay logged for O=c1[nH]c(=O)n(C2C[C@H](O)[C@@H](CO)O2)cc1C(F)(F)F (stereo partly drawn) ?
0 (no)

Could you kindly confirm the outcome this assay logged for CS(=O)(=O)c1nccc(-c2c(-c3cccc(OCCc4ccccc4)c3)nc3sccn23)n1 ?
0 (no)

Could you kindly confirm the outcome this assay logged for Nc1nc(-c2cccnc2)nc2c1sc(=S)n2-c1ccccc1 ?
0 (no)

Could you kindly confirm the outcome this assay logged for Nc1nc(Cl)nc2c1ncn2C1O[C@H](CO)[C@@H](O)[C@@H]1F (stereo partly drawn) ?
1 (yes)

Could you kindly confirm the outcome this assay logged for CCCc1nc(C(C)(C)O)c(C(=O)O)n1Cc1ccc(-c2ccccc2-c2nn[nH]n2)cc1 ?
0 (no)

Could you kindly confirm the outcome this assay logged for CC(C)N(CCOc1cccc(-c2nc3sccn3c2-c2ccnc(S(C)(=O)=O)n2)c1)C(C)C ?
0 (no)

###

Test system: MDA-MB-435 melanoma
experimentalProtocol: NCI-60 one-dose screen, 48 h (100 = growth as untreated, 0 = no growth, -100 = all killed)
experimentalParameters: 10 µM
Procedure: Growth inhibition of the MDA-MB-435 human Melanoma tumor cell line is measured as a screen for anti-cancer activity. Cells are grown in 96 well plates and exposed to the test compound for 48 hours. Compounds are tested at a single concentration, which is 10^-5 M for most compounds. The reported endpoint is percent growth (GI% or GIPRCNT), where numbers from 0 - 100% represent growth inhibition, and numbers from -100% - 0 represent cell death. […]
About 83,000 compounds went through this panel and 20% of them were active in at least one assay; those are over-represented in the sample as a whole.
measuredQuantity: growth (%)
Provide only the numeric value, understood in %.

In one line, give reported growth of the entry COc1ccc(/C=C2\CCCC3=C2NC(N)=NC3c2ccc(OC)c(OC)c2)cc1OC (centres undefined) .
30.8

Others:
In one line, give reported growth of the entry CCCN(CCC)C(=O)[C@H](CC)[C@@H]1CC[C@@H](C)[C@@H]([C@H](C)[C@@H](O)[C@@H](C)C(=O)[C@H](CC)C2O[C@]3(C=C[C@@H](O)[C@]4(CC[C@@](C)([C@H]5CC[C@](O)(CC)[C@H](C)O5)O4)O3)[C@H](C)C[C@@H]2C)O1 (some centres undefined) .
3.17

In one line, give reported growth of the entry O=S(=O)(NCCCNc1nccc(-c2cn(-c3ccccc3)nc2-c2ccc(Cl)c(O)c2)n1)c1ccccc1 .
68.7

In one line, give reported growth of the entry NS(=O)(=O)Oc1ccc2c(ccn2C(=O)C23CC4CC(CC(C4)C2)C3)c1 .
106

###

System: MALME-3M melanoma
experimentalProtocol: NCI-60 one-dose screen, 48 h (100 = growth as untreated, 0 = no growth, -100 = all killed)
experimentalParameters: 10 µM
This is part of a sample that, as a whole, favours compounds with a hit. Of some 83,000 tested, about 20% had one in any assay. The source made the active and inactive calls. Rule for the calls: active = growth percent below 10; inactive = the rest.
measuredQuantity: growth

Below: 5 compounds and their reported growth.
In one line, give reported growth of the entry COc1ccc(/C=C2/SC(=S)NC2=O)c(OC)c1OC .
65.7% (inactive)

In one line, give reported growth of the entry COc1ccc(-c2n[nH]nc2-c2cc(OC)c(OC)c(OC)c2)cc1 .
37.3% (inactive)

In one line, give reported growth of the entry COc1ccc(CCN2CCC(Nc3nc4ccccc4n3Cc3ccc(F)cc3)CC2)cc1 .
-79.5% (active)

In one line, give reported growth of the entry C/C=C/C1=CN2C(=O)c3cc(OC4OC(C)C(NC)C(C)(O)C4O)c(C)c(O)c3N=C[C@@H]2C1 (stereo not given in full) .
-51.9% (active)

In one line, give reported growth of the entry COc1cc2cc(Oc3ccc(NC(=O)Nc4ccc(Cl)c(C(F)(F)F)c4)cc3)c(C)nc2cc1OC .
-23% (active)

Others:
In one line, give reported growth of the entry CC(C)CCN(CCC(C)C)CC(=O)Nc1ccc(S(=O)(=O)c2ccc(NC(=O)CN(CCC(C)C)CCC(C)C)cc2)cc1 .
19.4% (inactive)

In one line, give reported growth of the entry NC(CSC(c1ccccc1)(c1ccccc1)c1cccc2ccccc12)C(=O)O (stereo not given) .
112% (inactive)

In one line, give reported growth of the entry Cc1ccc(-c2c3c(N)nc(-c4cccnc4)nc3nc3c2c(C)nn3-c2ccccc2)cc1 .
91.9% (inactive)

In one line, give reported growth of the entry COc1cc(OC)c2c(=O)c(O)c(-c3ccccc3)oc2c1 .
101% (inactive)

In one line, give reported growth of the entry COc1ccc(-c2nn(-c3cccc(Cl)c3)cc2-c2cc(-c3ccccc3)[nH]c(=O)c2C#N)cc1 .
24.7% (inactive)

In one line, give reported growth of the entry S=c1cnc2ccccc2[nH]1 .
84.6% (inactive)

In one line, give reported growth of the entry CCN(CC)CCCOc1cccc2c1C(=O)c1cccc(OCCCN(CC)CC)c1C2=O .
39.9% (inactive)

In one line, give reported growth of the entry CCOC(=O)c1cc(C(=O)c2cc(OC)c(OC)c(OC)c2)n2ccc(-c3cc[n+](CC(=O)c4cc(OC)c(OC)c(OC)c4)cc3)cc12 .
63.1% (inactive)

In one line, give reported growth of the entry CC(C)(C)OC(=O)CN1CCc2c(sc3ncnc(N/N=C/c4cccc5ccccc45)c23)C1 .
72.2% (inactive)

In one line, give reported growth of the entry O=C(O)c1ccc(-n2cc(CNc3ccc(Cl)cc3)c(-c3ccccc3)n2)cc1 .
79.9% (inactive)

In one line, give reported growth of the entry COc1cc(/C=C2\CCCC3C2=Nc2ccccc2NC3c2cc(OC)c(OC)c(OC)c2)cc(OC)c1OC (stereo not given) .
-34.9% (active)

In one line, give reported growth of the entry COc1cc(C(=O)N2CCN(c3cc4c(cc3F)c(=O)c(C(=O)NO)cn4C3CC3)CC2)cc(OC)c1OC .
105% (inactive)

In one line, give reported growth of the entry CCCc1cn(CC(=O)Nc2nc3ccccc3s2)nn1 .
101% (inactive)

In one line, give reported growth of the entry COC(=O)c1c[nH]c2cc(OC(C)C)c(OC(C)C)cc2c1=O .
125% (inactive)

Every entry's value here was drawn from PubChem BioAssay (NCI).
